TESTED_TARGET: Angiotensin-converting enzyme (Homo sapiens, UniProt P12821)
Sequence (P12821 whole entry): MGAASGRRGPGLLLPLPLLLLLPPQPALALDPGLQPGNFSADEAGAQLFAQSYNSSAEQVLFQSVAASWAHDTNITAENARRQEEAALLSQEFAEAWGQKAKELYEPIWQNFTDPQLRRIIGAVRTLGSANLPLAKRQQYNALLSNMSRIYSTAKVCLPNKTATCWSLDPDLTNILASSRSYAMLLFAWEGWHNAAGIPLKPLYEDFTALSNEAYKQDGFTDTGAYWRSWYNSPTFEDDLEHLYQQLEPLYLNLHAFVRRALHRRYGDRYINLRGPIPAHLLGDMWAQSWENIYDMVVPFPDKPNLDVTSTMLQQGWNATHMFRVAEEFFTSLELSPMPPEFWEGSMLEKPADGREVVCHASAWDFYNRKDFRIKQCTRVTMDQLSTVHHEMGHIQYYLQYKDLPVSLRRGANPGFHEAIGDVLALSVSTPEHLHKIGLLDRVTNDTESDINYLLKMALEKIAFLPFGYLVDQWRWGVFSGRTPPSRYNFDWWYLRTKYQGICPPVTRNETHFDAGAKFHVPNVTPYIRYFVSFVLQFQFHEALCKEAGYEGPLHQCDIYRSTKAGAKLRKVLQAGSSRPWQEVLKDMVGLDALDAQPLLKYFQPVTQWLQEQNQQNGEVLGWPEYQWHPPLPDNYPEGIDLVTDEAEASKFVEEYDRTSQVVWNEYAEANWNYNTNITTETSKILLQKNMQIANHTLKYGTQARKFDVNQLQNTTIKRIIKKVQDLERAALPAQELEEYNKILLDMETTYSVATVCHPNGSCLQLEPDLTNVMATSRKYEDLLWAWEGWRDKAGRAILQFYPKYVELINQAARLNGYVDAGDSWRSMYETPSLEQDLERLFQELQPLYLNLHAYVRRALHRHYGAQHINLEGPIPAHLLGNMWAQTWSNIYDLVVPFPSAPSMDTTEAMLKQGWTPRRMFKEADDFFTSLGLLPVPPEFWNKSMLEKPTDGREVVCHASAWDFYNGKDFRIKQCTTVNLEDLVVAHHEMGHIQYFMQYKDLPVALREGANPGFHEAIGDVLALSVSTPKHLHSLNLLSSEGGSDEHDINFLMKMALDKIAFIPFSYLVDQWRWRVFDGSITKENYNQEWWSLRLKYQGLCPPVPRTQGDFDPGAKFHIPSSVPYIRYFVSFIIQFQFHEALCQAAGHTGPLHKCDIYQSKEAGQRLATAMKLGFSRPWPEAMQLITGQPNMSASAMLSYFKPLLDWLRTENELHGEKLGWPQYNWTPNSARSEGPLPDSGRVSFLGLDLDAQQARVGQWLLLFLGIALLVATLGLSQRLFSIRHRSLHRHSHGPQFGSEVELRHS
ASSAY_DETAILS: Inhibitory concentration was evaluated by inhibiting 50% of Angiotensin I Converting Enzyme activity using 50 uM N-Cbz-Phe-His-Leu as substrate
Task for the reader: assign each of the following compounds its reported pIC50.
Entry type: numeric. Quantity: pIC50, the -log10 of concentration in molar units.

What measured pIC50 is associated with CC(C)CC(S)C(Cc1ccccc1)C(=O)NC(C)C(=O)O (centres undefined) on Angiotensin-converting enzyme (Homo sapiens, UniProt P12821)?
4.92

What measured pIC50 is associated with CC(C)CC(S)CC(=O)NC(Cc1ccccc1)C(=O)O (centres undefined) on Angiotensin-converting enzyme (Homo sapiens, UniProt P12821)?
5.00

What measured pIC50 is associated with O=C(O)C(Cc1ccc(O)cc1)NC(=O)C(Cc1ccccc1)C(S)CCc1ccccc1 (centres undefined) on Angiotensin-converting enzyme (Homo sapiens, UniProt P12821)?
5.80

What measured pIC50 is associated with CC(C)C[C@H](S)[C@H](Cc1ccccc1)C(=O)N[C@@H](C)C(=O)O on Angiotensin-converting enzyme (Homo sapiens, UniProt P12821)?
5.00

What measured pIC50 is associated with CC(NC(=O)C(Cc1ccccc1)C(S)CCc1ccccc1)C(=O)O (centres undefined) on Angiotensin-converting enzyme (Homo sapiens, UniProt P12821)?
5.40

What measured pIC50 is associated with CC(C)C[C@@H](S)[C@H](Cc1ccccc1)C(=O)N[C@@H](C)C(=O)O on Angiotensin-converting enzyme (Homo sapiens, UniProt P12821)?
5.30

What measured pIC50 is associated with CC(C)CC(S)[C@H](Cc1ccccc1)C(=O)N[C@@H](C)C(=O)O (some centres undefined) on Angiotensin-converting enzyme (Homo sapiens, UniProt P12821)?
5.40

What measured pIC50 is associated with CC(C)CC(S)C(Cc1ccccc1)C(=O)NC(Cc1ccc(O)cc1)C(=O)O (centres undefined) on Angiotensin-converting enzyme (Homo sapiens, UniProt P12821)?
6.15

What measured pIC50 is associated with CC(C)C(C(=O)NC(Cc1ccc(O)cc1)C(=O)O)C(S)CCc1ccccc1 (centres undefined) on Angiotensin-converting enzyme (Homo sapiens, UniProt P12821)?
5.35
